- TEST_SUMMARY: HEp-2 cell cytotoxicity, dose response, cytotoxicity control for RSV inhibitor project, HTS (AID 2410)
- Type: functional
- CONDITION_DESCRIPTION: human respiratory syncytial virus
Activity calls are given as the source filed them.
Listed here: items and their measured CC50.

# example entries with known answers
INSERT INTO measurements (compound, value_observed) VALUES
  ('COc1ccc(Nc2cccc(Cl)c2)c(C(=O)O)c1', '25.3 µM (active)'),
  ('Cc1cc(C)nc(/N=c2/ssnc2Cl)c1', '17.4 µM (active)'),
  ('COc1ccc(C(C(=O)NC2CCCCC2)N(C(=O)Cc2c[nH]c3ccccc23)c2ccccc2)cc1OC (stereo not drawn)', '27.2 µM (active)'),
  ('CC(=N)/C(C#N)=C(/O)COc1ccc(Cl)cc1Cl', '> 50 µM (active)'),
  ('COc1ccc2c(c1)C(C)=CC(C)(C)N2C(=O)CNCc1ccc2c(c1)OCO2', '> 50 µM (active)');

Request: I'd like to know its CC50. The compound in question is `CN1CCN(C(=O)CCCN2C(=O)/C(=C/c3ccc(Cl)cc3)SC2=S)CC1`
Result: 13.5 µM (active)

Request: I'd like to know its CC50. The compound in question is `CCCCC(=O)Nc1ccc(C(=O)OC2CCCCC2)cc1`
Result: 22.8 µM (active)

Request: I'd like to know its CC50. The compound in question is CCOc1cc2c(cc1OCC)-n1cccc1C(c1cc(OC)ccc1F)NC2 (stereo not drawn)
Result: 39.8 µM (active)

----------
- TARGET: Replicative DNA helicase DnaB (Mycobacterium tuberculosis, UniProt P9WMR3)
- Sequence (P9WMR3 whole entry): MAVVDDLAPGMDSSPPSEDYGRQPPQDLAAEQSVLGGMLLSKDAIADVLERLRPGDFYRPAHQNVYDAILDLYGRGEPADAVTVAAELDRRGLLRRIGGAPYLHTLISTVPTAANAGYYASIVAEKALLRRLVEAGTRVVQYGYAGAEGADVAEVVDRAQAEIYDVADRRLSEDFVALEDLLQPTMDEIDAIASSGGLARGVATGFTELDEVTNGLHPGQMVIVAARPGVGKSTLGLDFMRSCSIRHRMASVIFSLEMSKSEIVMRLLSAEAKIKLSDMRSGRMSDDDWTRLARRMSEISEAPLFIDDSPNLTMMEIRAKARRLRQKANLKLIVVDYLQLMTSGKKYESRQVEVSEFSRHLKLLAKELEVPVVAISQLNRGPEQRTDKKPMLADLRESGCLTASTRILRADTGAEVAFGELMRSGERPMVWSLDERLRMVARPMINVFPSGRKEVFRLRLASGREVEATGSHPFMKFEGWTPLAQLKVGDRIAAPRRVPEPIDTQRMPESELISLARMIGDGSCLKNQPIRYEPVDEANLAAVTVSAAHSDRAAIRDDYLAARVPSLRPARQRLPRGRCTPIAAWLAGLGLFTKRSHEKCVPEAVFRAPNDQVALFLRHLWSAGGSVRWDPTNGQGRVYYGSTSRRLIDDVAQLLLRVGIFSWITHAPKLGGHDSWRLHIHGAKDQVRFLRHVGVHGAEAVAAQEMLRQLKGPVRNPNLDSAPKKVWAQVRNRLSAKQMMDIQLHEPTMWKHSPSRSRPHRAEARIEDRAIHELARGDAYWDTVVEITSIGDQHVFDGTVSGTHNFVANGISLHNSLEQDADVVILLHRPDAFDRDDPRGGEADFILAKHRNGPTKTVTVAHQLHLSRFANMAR
- TEST_SUMMARY: DnaB intein splicing inhibitors, dose response, biochemical, cell-free fluorescence (AID 449749)
- Assay type: functional
Activity calls are given as the source filed them.
MEASURE: AC50

# example entries with known answers
INSERT INTO results (molecule, value_observed) VALUES
  ('Cc1ccc(C)c(S(=O)(=O)/N=C2\C=C(NS(=O)(=O)c3ccccc3)C(=O)c3ccccc32)c1', '2.17 µM (active)'),
  ('Cc1onc(-c2ccccc2)c1-c1nc2cc(Cl)ccc2c(=O)o1', '1.53 µM (active)'),
  ('C=CSc1sc(Cl)c(N2CCOCC2)c1[N+](=O)[O-]', '11.1 µM (active)'),
  ('O=C(NC1(O)C(=O)c2ccccc2C1=O)c1ccccc1', '7.72 µM (active)'),
  ('CCc1ccc(NC(=O)C(=O)N/N=C(\C)CC(=O)Nc2ccccn2)cc1', '> 380 µM (inactive)');

Request: I'd like to know its AC50. The molecule in question is `Cc1[nH]c2ccccc2c1/C=N/Nc1nc2ccccc2[nH]1`
Result: > 380 µM (inactive)

Request: I'd like to know its AC50. The molecule in question is O=C(Nc1ccccc1Cl)/C(Cl)=C(\Cl)[S+]([O-])c1ccccc1 (configuration not stated)
Result: 2.7 µM (active)

Request: I'd like to know its AC50. The molecule in question is `Cc1n[nH]c(O)c1C(c1ccc(-c2cccc(Cl)c2)o1)c1c(C)n[nH]c1O`
Result: > 380 µM (inactive)

Request: I'd like to know its AC50. The molecule in question is `Cc1ccc(SC(=O)c2c(C)noc2-c2cc(C)on2)cc1`
Result: 6.38 µM (active)

Request: I'd like to know its AC50. The molecule in question is `O=[N+]([O-])c1ccc(Oc2cccc(F)c2)c2ccncc12`
Result: > 380 µM (inactive)

Request: I'd like to know its AC50. The molecule in question is `CCN(CCN(C)C)C(=O)c1ccc2c(c1NCCO)C(=O)c1ccccc1C2=O`
Result: 0.0471 µM (active)

Request: I'd like to know its AC50. The molecule in question is `O=S(=O)(Nc1cc2nc3ccccc3nc2n1Cc1ccccc1)c1ccc(Cl)cc1`
Result: 10.1 µM (active)

----------
- Tested on: P388;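 further: compound exposure lasted 48 hours before growth was measured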
- TEST_SUMMARY: cells
- Assay type: functional
- CONDITION_DESCRIPTION: Mus musculus
Calls of active or inactive are those of the source.
Return exactly one item of active, inactive

INSERT INTO results (molecule, target, group_label) VALUES
  ('COc1cccc2c1C(=O)c1c(O)c3c(c(O)c1C2=O)C[C@](O)(C(=O)CO)CC3OC1CC(N)C(OC2CCCCO2)C(C)O1 (stereo not given in full)', 'P388', 'active'),
  ('O=C1NC2(CCCCC2)C(=O)N1CCN(CCCl)CCCl', 'P388', 'inactive');

Request: Answer briefly: the call reported for NC1=NC(c2ccccc2)CC(c2cc(Cl)cc(Br)c2O)=N1 (stereo not given) in this assay.
Result: inactive

Request: Answer briefly: the call reported for `COc1ccc(/C=C\c2cc(OC)c(OC)c(OC)c2)c(O)c1O` in this assay.
Result: active

Request: Answer briefly: the call reported for Nc1ncnc2c(C3OC(CO)C(O)C3O)n[nH]c12 (stereo not given) in this assay.
Result: inactive

----------
- TARGET: Voltage-gated N-type calcium channel alpha-1B subunit/Amyloid beta A4 precursor protein-binding family A member 1 (Homo sapiens, UniProt Q00975+Q02410)
- Sequence (Q00975 whole entry): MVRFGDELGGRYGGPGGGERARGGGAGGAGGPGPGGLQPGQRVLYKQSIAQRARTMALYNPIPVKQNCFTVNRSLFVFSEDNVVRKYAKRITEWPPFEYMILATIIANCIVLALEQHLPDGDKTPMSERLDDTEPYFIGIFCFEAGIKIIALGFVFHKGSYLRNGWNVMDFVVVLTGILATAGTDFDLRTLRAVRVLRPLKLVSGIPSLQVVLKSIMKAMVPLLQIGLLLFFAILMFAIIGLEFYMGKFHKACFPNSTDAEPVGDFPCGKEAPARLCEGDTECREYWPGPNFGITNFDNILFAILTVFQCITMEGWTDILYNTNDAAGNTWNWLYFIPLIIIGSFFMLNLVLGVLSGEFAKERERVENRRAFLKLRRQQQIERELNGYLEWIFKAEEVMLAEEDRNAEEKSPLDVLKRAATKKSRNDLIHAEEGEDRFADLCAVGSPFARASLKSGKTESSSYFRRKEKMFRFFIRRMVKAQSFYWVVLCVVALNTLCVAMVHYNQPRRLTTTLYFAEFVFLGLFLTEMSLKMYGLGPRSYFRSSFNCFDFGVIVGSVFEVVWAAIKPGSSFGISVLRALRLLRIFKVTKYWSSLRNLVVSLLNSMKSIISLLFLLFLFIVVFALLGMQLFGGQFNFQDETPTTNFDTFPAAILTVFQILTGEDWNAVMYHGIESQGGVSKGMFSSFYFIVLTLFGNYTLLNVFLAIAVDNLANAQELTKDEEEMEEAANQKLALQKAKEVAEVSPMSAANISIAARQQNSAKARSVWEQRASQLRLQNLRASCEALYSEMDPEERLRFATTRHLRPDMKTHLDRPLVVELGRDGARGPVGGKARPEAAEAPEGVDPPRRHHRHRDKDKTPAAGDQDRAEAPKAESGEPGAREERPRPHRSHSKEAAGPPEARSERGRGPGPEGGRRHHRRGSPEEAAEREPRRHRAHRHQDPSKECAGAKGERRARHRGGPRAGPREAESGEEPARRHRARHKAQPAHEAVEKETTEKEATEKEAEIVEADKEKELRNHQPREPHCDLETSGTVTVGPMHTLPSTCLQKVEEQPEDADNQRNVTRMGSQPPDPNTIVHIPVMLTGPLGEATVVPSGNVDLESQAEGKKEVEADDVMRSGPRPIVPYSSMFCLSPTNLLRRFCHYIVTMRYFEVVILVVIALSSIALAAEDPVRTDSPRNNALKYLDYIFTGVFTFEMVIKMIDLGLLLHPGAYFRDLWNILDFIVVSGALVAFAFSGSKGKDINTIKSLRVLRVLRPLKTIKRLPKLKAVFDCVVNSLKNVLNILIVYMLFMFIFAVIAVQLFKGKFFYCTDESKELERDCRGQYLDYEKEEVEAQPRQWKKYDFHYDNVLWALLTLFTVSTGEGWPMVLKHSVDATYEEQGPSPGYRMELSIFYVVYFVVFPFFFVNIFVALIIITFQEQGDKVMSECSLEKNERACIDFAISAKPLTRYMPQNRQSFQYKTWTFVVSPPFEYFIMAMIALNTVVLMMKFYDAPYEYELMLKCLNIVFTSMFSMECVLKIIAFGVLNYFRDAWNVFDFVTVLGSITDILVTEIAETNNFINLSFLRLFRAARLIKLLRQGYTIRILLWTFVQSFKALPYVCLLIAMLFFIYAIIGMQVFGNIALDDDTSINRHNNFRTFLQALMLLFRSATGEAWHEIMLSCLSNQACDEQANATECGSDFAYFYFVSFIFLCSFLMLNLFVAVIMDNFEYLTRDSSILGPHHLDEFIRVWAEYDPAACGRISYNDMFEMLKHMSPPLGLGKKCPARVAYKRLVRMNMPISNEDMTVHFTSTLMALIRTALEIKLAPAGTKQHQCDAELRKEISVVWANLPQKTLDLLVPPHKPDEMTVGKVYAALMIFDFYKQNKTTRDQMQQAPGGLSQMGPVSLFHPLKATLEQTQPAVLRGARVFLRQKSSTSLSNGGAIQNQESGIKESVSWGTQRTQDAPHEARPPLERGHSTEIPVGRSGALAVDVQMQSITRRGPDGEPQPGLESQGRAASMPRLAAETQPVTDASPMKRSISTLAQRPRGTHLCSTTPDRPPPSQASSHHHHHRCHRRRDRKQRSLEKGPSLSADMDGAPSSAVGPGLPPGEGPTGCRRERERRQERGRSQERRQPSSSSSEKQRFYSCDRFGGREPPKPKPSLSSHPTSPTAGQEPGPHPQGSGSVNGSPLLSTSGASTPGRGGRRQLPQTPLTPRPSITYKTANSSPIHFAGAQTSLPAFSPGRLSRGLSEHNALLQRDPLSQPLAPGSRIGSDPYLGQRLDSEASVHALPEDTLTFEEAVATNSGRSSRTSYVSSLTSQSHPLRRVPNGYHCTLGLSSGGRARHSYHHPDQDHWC
- Sequence (Q02410 whole entry): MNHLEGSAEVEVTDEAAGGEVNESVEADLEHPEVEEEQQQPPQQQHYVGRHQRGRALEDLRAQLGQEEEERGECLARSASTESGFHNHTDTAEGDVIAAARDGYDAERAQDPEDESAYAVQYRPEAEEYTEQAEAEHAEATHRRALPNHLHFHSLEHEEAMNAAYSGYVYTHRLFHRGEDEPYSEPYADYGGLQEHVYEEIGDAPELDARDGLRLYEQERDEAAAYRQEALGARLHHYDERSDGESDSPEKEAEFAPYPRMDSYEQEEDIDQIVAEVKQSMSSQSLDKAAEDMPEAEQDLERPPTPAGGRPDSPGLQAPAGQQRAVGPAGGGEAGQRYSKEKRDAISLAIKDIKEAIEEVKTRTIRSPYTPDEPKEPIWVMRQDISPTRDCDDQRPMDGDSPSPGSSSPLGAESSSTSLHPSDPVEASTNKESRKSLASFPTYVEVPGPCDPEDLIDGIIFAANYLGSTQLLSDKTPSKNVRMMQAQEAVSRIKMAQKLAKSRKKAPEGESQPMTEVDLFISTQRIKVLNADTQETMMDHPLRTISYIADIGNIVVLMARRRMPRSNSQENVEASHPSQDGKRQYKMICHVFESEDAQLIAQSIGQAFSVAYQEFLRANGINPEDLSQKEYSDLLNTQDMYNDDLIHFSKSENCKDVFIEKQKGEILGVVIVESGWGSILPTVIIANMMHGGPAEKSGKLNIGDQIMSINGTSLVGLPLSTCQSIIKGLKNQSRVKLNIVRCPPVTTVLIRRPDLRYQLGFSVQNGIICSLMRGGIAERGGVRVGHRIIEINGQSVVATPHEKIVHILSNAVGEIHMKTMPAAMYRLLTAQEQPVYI
- Assay type: protein assay
Calls of active or inactive are those of the source.
MEASURE: IC50

# example entries with known answers
INSERT INTO measurements (smiles_structure, measure, value_observed) VALUES
  ('CSc1nc(SCCO)c2sc3nc(-c4ccco4)c4c(c3c2n1)CC(C)(C)OC4', 'IC50', '> 56.8 µM (not active)'),
  ('Cc1cc(C)c2c(=O)n(CC(=O)Nc3ccc(Br)c(C)c3)sc2n1', 'IC50', '> 56.8 µM (not active)'),
  ('Cn1sc(=O)c2cc(S(=O)(=O)NC3CC3)ccc21', 'IC50', '15.6 µM (active)'),
  ('O=C(/C=C/c1ccc([N+](=O)[O-])cc1)N(c1ccccn1)C1CCCCC1', 'IC50', '10.5 µM (active)'),
  ('Cc1cc(C)nc(/N=c2/ssnc2Cl)c1', 'IC50', '10.6 µM (active)'),
  ('O=C1NC(=S)N(c2ccc(F)cc2)C(=O)/C1=C/c1ccco1', 'IC50', '3.33 µM (active)');

Could you now look at the following compound, please?
Request: I'd like to know its IC50. The compound in question is `CCc1ccc2nc(NC(=O)c3ccc4c(O)nc(CN5CCOCC5)nc4c3)sc2c1`
Result: 6.59 µM (active)

----------
- TEST_SUMMARY: Luminescence Cell-Based Dose Response HTS to Identify Inhibitors of 5'UTR Stem-Loop Driven Prion Protein mRNA Translation in H4 Neuroglioblastoma Cells. [Related pubchem assays: 1827 (Project Summary), 1813 (Primary HTS)]
- Type: functional
The source made the active and inactive calls.
Listed here: items and their measured EC50.

# example entries with known answers
INSERT INTO results (molecule, value_observed) VALUES
  ('CC(C)CC(NC(=O)c1ccc(Cl)cc1)C(=O)OCC(=O)c1ccc2c(c1)NC(=O)CO2 (centres undefined)', '2.69 µM (active)'),
  ('CSC1CCCCC1(O)CSc1nc2c(cc1C#N)CCCC2 (centres undefined)', '22.3 µM (active)'),
  ('CN1CCN(Cc2cc(COCc3ccccc3)c3cccnc3c2O)CC1', '8.1 µM (active)');

Request: I'd like to know its EC50. The molecule in question is C[C@@H]1O[C@@H](O[C@H]2C[C@@H](O)[C@]3(CO)[C@H]4[C@H](O)C[C@]5(C)[C@@H](C6COC(=O)C6)CC[C@]5(O)[C@@H]4CC[C@]3(O)C2)[C@H](O)[C@H](O)[C@H]1O (some centres undefined)
Result: 0.132 µM (active)
